Cited source for all entries: the supplement of paper PMC13380429

System: Vero E6 infected with SARS-CoV-2
Protocol Summary: SARS-CoV-2 infection rate relative to infected DMSO; higher = more infection, active = 60 or less
Run Parameters: 24 h
Measured Attribute: SARS-CoV-2 infection rate (%)
Express it in %; write the number only.

Given the entry O=C1CCC(N2C(=O)c3ccccc3C2=O)C(=O)N1 (configuration not stated) [thalidomide] (10 µM) , report its measured SARS-CoV-2 infection rate. 104

Given the entry CC1(C)C(=O)NC2=C1C(=O)C(=O)c1ccccc12 (0.833333 µM) , report its measured SARS-CoV-2 infection rate. 114

Given the entry CCNCCCNCCCCNCCCNCC (0.833333 µM) , report its measured SARS-CoV-2 infection rate. 80.5

Given the entry C=C1/C(=C\C=C2/CCC[C@]3(C)[C@@H]([C@H](C)CCCC(C)(C)O)CC[C@@H]23)C[C@@H](O)C[C@@H]1O [calcitriol] (10 µM) , report its measured SARS-CoV-2 infection rate. 108

Given the entry CCOC(=O)/C=C(C)/C=C/C=C(C)/C=C/c1c(C)cc(OC)c(C)c1C [etretinate] (10 µM) , report its measured SARS-CoV-2 infection rate. 92.5

Given the entry O=C(Nc1c(Cl)cncc1Cl)c1ccc(OC(F)F)c(OCC2CC2)c1 [roflumilast] (10 µM) , report its measured SARS-CoV-2 infection rate. 97

Given the entry CCOC(=O)C1=C(C)NC(c2ccccc2)=C(C(=O)OCc2ccc([N+](=O)[O-])cc2)[C@@H]1C#Cc1ccccc1 (10 µM) , report its measured SARS-CoV-2 infection rate. 89

Given the entry CCC[C@H](NC(=O)/C(C#N)=C/c1cccc(Br)n1)c1ccccc1 (0.833333 µM) , report its measured SARS-CoV-2 infection rate. 108

Given the entry CC(O)Cn1cnc2c1c(=O)n(C)c(=O)n2C (configuration not stated) [Proxyphylline] (10 µM) , report its measured SARS-CoV-2 infection rate. 97

Given the entry O=C(CCN1CCN(C(=O)OCc2cc(Cl)cc(Cl)c2)CC1)c1ccc2[nH]c(=O)oc2c1 (10 µM) , report its measured SARS-CoV-2 infection rate. 99.5

Given the entry O=C(O)c1ccccc1C(=O)Nc1ccc(S(=O)(=O)Nc2nccs2)cc1 [phthalylsulfathiazole] (10 µM) , report its measured SARS-CoV-2 infection rate. 102

Given the entry CC(=O)Nc1ccc(CC(=O)O)cc1 [actarit] (10 µM) , report its measured SARS-CoV-2 infection rate. 99.5

Given the entry NCCCC(O)(P(=O)(O)O)P(=O)(O)O [alendronate] (10 µM) , report its measured SARS-CoV-2 infection rate. 110

Given the entry CC(C)N(CCCNC(=O)Nc1ccc(C(C)(C)C)cc1)C[C@H]1O[C@@H](n2cc(Br)c3c(N)ncnc32)[C@H](O)[C@@H]1O (10 µM) , report its measured SARS-CoV-2 infection rate. 120

Given the entry CCc1nc(C)ccc1O [emoxipin] (10 µM) , report its measured SARS-CoV-2 infection rate. 99.5

Given the entry Fc1ccc(C(OCCN2CCN(CCCc3ccccc3)CC2)c2ccc(F)cc2)cc1 [vanoxerine] (0.833333 µM) , report its measured SARS-CoV-2 infection rate. 86

Given the entry O=C(NOCCO)c1cc(CN2OCCCC2=O)c(F)c(F)c1Nc1ccc(I)cc1F (0.833333 µM) , report its measured SARS-CoV-2 infection rate. 96.5
